METHOD NOTES: NCI Yeast Anticancer Drug Screen. Data for the rad50 strain (AID 155);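 note: 0% = growth of vehicle-only cultures of the same strain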
CONDITION: S. cerevisiae rad50 strain growth inhibition; at 50.0 µM; active compounds read high
Compounds without any hit were thinned out: in the full panel of roughly 79,000, 15% have a hit.
ENDPOINT NAME: growth inhibition (%)
Could you give me the number in %? Just the number is fine.

Some compounds with known growth inhibition results, for comparison:
COMPOUND: COC(=O)C(C(=O)C(=O)NC1=C(Cl)C(=O)c2ccccc2C1=O)c1csc(-n2nc(-c3ccccc3)cc2-c2ccccc2)n1 (centres undefined)
SCALE UNIT: %
growth inhibition: -0.4
//
COMPOUND: CCCc1nc(CCC)nc(CCC)n1
SCALE UNIT: %
growth inhibition: -13.8
//
COMPOUND: Cc1nc2nc[nH]n2c1N=Nc1ccccc1
SCALE UNIT: %
growth inhibition: -28.3

query: Give growth inhibition for the following compound: Clc1ccc(C2ON=C(c3ccccc3)N2C23CC4CC(CC(C4)C2)C3)cc1 (centres undefined)
result: -23.2

====

METHOD NOTES: NCI Yeast Anticancer Drug Screen. Data for the cln2 rad14 strain (AID 165);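 note: 0% = growth equal to vehicle treated cultures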
CONDITION: S. cerevisiae cln2 rad14 strain, at 50.0 µM, active compounds read high
The panel holds about 79,000 compounds, 15% with a hit somewhere; the sample as a whole holds those more often.
In this section we review reported growth inhibition values for a set of compounds.
Could you give me the number in %? Just the number is fine.

query: Give growth inhibition for the following compound: `O=c1c2ccccc2[nH]c2ccc(O)cc12`
result: -3.25

query: Give growth inhibition for the following compound: O=C(Nc1ccccc1)OC1CCCC12CC2 (stereo not drawn)
result: -4.8

query: Give growth inhibition for the following compound: `Nc1nc(-c2ccc(S(=O)(=O)O)cc2)cc(=O)[nH]1`
result: 17.2

query: Give growth inhibition for the following compound: `Nc1nc(-c2ccc3c(ccc4ccccc43)c2)cs1`
result: -46.3

query: Give growth inhibition for the following compound: COC(=O)CC[C@@H](NC(=O)C(C)NC(=O)COC1C(O)C(COC(=O)CCCCCCCCCCNC(=O)c2ccc([N+](=O)[O-])c3[nH]c4cc(Br)ccc4c(=O)c23)OC(OCc2ccccc2)C1NC(C)=O)C(N)=O (stereo partly drawn)
result: 1.5

query: Give growth inhibition for the following compound: `COc1ccc(NC(=O)Oc2cccc(NC(C)=O)c2)c(OC)c1`
result: 4.35

query: Give growth inhibition for the following compound: `OC1(c2ccc(F)cc2)CCNCC1`
result: 20.4

====

METHOD NOTES: NCI Yeast Anticancer Drug Screen. Data for the sgs1 mgt1 strain (AID 161);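 note: 0% = growth of cultures given vehicle only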
CONDITION: S. cerevisiae sgs1 mgt1 strain, at 50.0 µM, active compounds read high
Description: Growth inhibition of yeast strains with defined genetic alterations is measured as a screen for potential anti-cancer activity. Selected strains with alterations in DNA damage repair or cell cycle control were exposed to compounds and growth inhibition was measured relative to vehicle treated controls. The strain used in this assay is sgs1 mgt1
Compounds without any hit were thinned out: in the full panel of roughly 79,000, 15% have a hit.
ENDPOINT NAME: growth inhibition (%)
Could you give me the number in %? Just the number is fine.

Some compounds with known growth inhibition results, for comparison:
COMPOUND: COC(=O)C(N)CSc1ccc([N+](=O)[O-])cc1[N+](=O)[O-] (centres undefined)
SCALE UNIT: %
growth inhibition: 40.2
--
COMPOUND: O=C(/C=C/c1cccs1)c1ccc(Cl)cc1
SCALE UNIT: %
growth inhibition: -9.45

query: Give growth inhibition for the following compound: COC(=O)CC1(O)C=CCCC1c1ccccc1 (centres undefined)
result: 2.35

====

METHOD NOTES: NCI Yeast Anticancer Drug Screen. Data for the rad50 strain (AID 155);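 note: 0% = growth of vehicle-only cultures of the same strain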
CONDITION: S. cerevisiae rad50 strain growth inhibition; at 50.0 µM; active compounds read high
Compounds without any hit were thinned out: in the full panel of roughly 79,000, 15% have a hit.
ENDPOINT NAME: growth inhibition (%)
Could you give me the number in %? Just the number is fine.

Some compounds with known growth inhibition results, for comparison:
COMPOUND: O=C(/C(=C(/Br)I)c1ccccc1)c1ccccc1
SCALE UNIT: %
ENDPOINT VALUE: -13.8
//
COMPOUND: COc1ccc(C(C)=C(C#N)C#N)cc1
SCALE UNIT: %
ENDPOINT VALUE: 18.9

query: Give growth inhibition for the following compound: `C[C@@H]1C[C@@H]2C(=O)N(c3ccccc3)C(=O)[C@@H]2c2[nH]c3ccc(Br)cc3c21`
result: 0.2

query: Give growth inhibition for the following compound: `C=C(Cl)Cc1c(O)c2c(c(O)c1CC(=C)Cl)C(=O)c1ccccc1C2=O`
result: -39.2

query: Give growth inhibition for the following compound: `O=C(N/C(=C\c1cc(Cl)ccc1Cl)c1nc2ccccc2[nH]1)c1ccccc1`
result: 50.2

query: Give growth inhibition for the following compound: `COC(=O)Cc1ccccc1C(c1ccccc1)c1ccccc1`
result: -1.85

====

METHOD NOTES: NCI Yeast Anticancer Drug Screen. Data for the rad50 strain (AID 155);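 note: 0% = growth of vehicle-only cultures of the same strain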
CONDITION: S. cerevisiae rad50 strain growth inhibition; at 50.0 µM
The panel holds about 79,000 compounds, 15% with a hit somewhere; the sample as a whole holds those more often. The source made the active and inactive calls. Rule as the data show it: active = growth inhibition above about 70%; inactive = the rest.
Can you answer with just one of these options? yes for active, no for inactive

COMPOUND: C=C(C)C(=O)Oc1ccccc1-c1ccccc1
CLASS LABEL: no

COMPOUND: C[N+](C)(CC(=O)Nc1ccc(Cl)cc1)Cc1ccc2c(c1)CCCC2
CLASS LABEL: yes

COMPOUND: O=C(C[n+]1cccc(C(=O)Nc2ccc(Cl)cc2)c1)Nc1ccccc1
CLASS LABEL: no

COMPOUND: CCOc1ccc(-n2c(O)c(N=Nc3ccccc3OC)c(=O)n(-c3ccc(OC)cc3)c2=S)cc1
CLASS LABEL: no

query: Per the records of this test, what outcome belongs to `C=C1CN=C(Nc2ccc(F)cc2F)S1` ?
result: no

====

METHOD NOTES: NCI Yeast Anticancer Drug Screen. Data for the mlh1 rad18 strain (AID 175)
CONDITION: S. cerevisiae mlh1 rad18 strain growth inhibition; at 50.0 µM; active compounds read high
This is part of a sample that, as a whole, favours compounds with a hit. Of some 79,000 tested, about 15% had one in any assay.
ENDPOINT NAME: growth inhibition (%)
Could you give me the number in %? Just the number is fine.

Some compounds with known growth inhibition results, for comparison:
COMPOUND: Cc1c([N+](=O)[O-])cc(C(C)(C)C)c(OC(=O)Nc2cccc(Cl)c2)c1[N+](=O)[O-]
growth inhibition [%]: 72.3

COMPOUND: CC1CC(=O)CC[C@@H]1OCc1ccccc1 (some centres undefined)
growth inhibition [%]: 16.7

COMPOUND: COc1ccc(/C=C2/C(=O)N(c3ccccc3)N=C2C)cc1
growth inhibition [%]: 22.1

COMPOUND: CCOC(=O)c1c(-c2ccccc2)csc1NC(=O)CN1CCCCC1
growth inhibition [%]: 24.7

COMPOUND: CCOC(CN(CC)CC)OCC
growth inhibition [%]: 2.15

COMPOUND: [O-]c1csc2n(-c3ccccc3)c3ccccc3[n+]12
growth inhibition [%]: 6.65

COMPOUND: C/C=C/c1nc2ccccc2[nH]1
growth inhibition [%]: -0.95

COMPOUND: O=C1OC(/C=C/c2ccccc2)C(=O)C1=O (centres undefined)
growth inhibition [%]: -9.95

COMPOUND: COc1cc(=O)[nH]c(-c2ccccc2)c1OC
growth inhibition [%]: 0.05

COMPOUND: O=C(NC(Cc1ccccc1)C(=O)O)c1ccccc1 (centres undefined)
growth inhibition [%]: 1.55

query: Give growth inhibition for the following compound: `COc1cccc(N2C(=O)CC(=P(c3ccccc3)(c3ccccc3)c3ccccc3)C2=O)c1`
result: 13.4

query: Give growth inhibition for the following compound: CCN(CC)CCCC(C)Nc1nncc2ccccc12 (centres undefined)
result: -8.95

query: Give growth inhibition for the following compound: `O=[N+]([O-])c1ccc(-c2nnn(C3CC3)c2N2CCCCC2)cc1`
result: 5.15

====

In this section we review reported growth inhibition values for a set of molecules.
METHOD NOTES: NCI Yeast Anticancer Drug Screen. Data for the rad50 strain (AID 155);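 note: 0% = growth of vehicle-only cultures of the same strain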
CONDITION: S. cerevisiae rad50 strain growth inhibition; at 50.0 µM; active compounds read high
This is part of a sample that, as a whole, favours compounds with a hit. Of some 79,000 tested, about 15% had one in any assay.
Could you give me the number in %? Just the number is fine.

MOLECULE: CC(=O)Nc1ccc(NC(=O)C2CC3C=CC2C3)cc1 (configuration not stated)
growth inhibition (%): 7.55
--
MOLECULE: CNC(=O)C(c1ccccc1)C(F)(F)F (configuration not stated)
growth inhibition (%): 8.1
--
MOLECULE: O=C(NC(=S)Nc1cccc2ccccc12)c1ccccc1F
growth inhibition (%): 30.9

query: Give growth inhibition for the following molecule: `CC(=O)CC(=O)Nc1ccc(NC(=O)CC(C)=O)cc1`
result: -13.5

query: Give growth inhibition for the following molecule: `Cc1cc(Cl)c(O)c(-c2cc(-c3ccc([N+](=O)[O-])cc3)c3c(N)[nH]c(=O)nc3n2)c1`
result: 44.1

query: Give growth inhibition for the following molecule: `O=C(NCCCl)Nc1[nH]c(=O)ncc1Cl`
result: -12.2

query: Give growth inhibition for the following molecule: `CC(=O)Nc1cccc(Cc2ccccc2)c1`
result: 14.3
